Entries with reported IC50 on Glyceraldehyde-3-phosphate dehydrogenase (Homo sapiens, UniProt P04406)
Sequence (P04406 whole entry): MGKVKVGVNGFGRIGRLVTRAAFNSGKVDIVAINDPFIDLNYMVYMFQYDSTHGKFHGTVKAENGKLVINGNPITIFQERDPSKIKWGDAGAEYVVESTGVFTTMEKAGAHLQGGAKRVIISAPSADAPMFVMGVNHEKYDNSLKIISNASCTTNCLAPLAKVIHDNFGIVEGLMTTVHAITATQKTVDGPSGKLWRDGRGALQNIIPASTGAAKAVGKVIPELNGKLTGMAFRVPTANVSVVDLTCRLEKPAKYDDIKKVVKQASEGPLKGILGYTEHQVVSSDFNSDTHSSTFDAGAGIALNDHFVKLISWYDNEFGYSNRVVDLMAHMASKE
outcomeMeasure: IC50

| compoundStructureString | outcomeMeasure | measValue |
| --- | --- | --- |
| C[C@H]1CN(C2=C(Cl)C(=O)N(c3ccnc(Cl)c3)C2=O)CCN1 | IC50 | > 50 µM (inconclusive) |
| O=C(NCCO)c1cc(-c2ccc(F)cc2F)n[nH]1 | IC50 | > 10 µM (inconclusive) |
| COc1ccc(N2CCN(C3=C(Cl)C(=O)N(c4cccc(OC)c4)C3=O)CC2)cc1 | IC50 | > 50 µM (inconclusive) |
| COc1ccc(OC)c(NS(=O)(=O)c2cccc3cccnc23)c1 | IC50 | > 100 µM (not active) |

====

biological target: Sentrin-specific protease 8 (Homo sapiens); format: functional;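 note: luminescence read-out of SENP8 inhibition, dose-response confirmation following an ultra-high-throughput screen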
Sequence (Q96LD8 whole entry): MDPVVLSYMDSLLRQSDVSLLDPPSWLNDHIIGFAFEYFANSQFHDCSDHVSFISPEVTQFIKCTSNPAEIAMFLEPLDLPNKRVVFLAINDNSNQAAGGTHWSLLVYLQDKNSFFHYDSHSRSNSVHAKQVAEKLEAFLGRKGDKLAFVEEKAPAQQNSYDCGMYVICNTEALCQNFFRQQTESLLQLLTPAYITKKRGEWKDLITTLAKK
Active and inactive are the calls of the source.
Outcome codes: active, inactive

| compoundStructureString | assignedLabel |
| --- | --- |
| CC(=O)Nc1nc(COc2ccc3ccccc3c2)cs1 | active |
| Cc1ccc(NC2=CC(=O)C(=O)c3ccccc32)cc1 | active |
| C[N+](=N[N-]c1cccc([N+](=O)[O-])c1)c1ccccc1 | active |
| COc1ccc(-c2csc(NC(=O)c3ccco3)n2)cc1 | active |
| COc1cccc(-c2nc3ccc([N+](=O)[O-])cc3o2)c1 | inactive |
| O=C(Nc1ccc(Cl)cc1)C1=Cc2ccccc2OC1 | active |

====

molecular target: DNA dC->dU-editing enzyme APOBEC-3A (Homo sapiens, UniProt P31941); assay: Dose Response confirmation of small molecule APOBEC3A DNA Deaminase Inhibitors via a fluorescence-based single-stranded DNA deaminase assay. [Related pubchem assays (depositor defined):AID493011, AID493024]; assay type: functional
Sequence (P31941 whole entry): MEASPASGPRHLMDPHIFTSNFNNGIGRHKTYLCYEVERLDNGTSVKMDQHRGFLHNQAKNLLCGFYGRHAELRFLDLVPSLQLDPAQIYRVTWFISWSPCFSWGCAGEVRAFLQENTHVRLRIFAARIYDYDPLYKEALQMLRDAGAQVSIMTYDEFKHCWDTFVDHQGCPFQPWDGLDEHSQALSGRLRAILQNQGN
Calls of active or inactive are those of the source.
Outcome codes: label 1 (active), label 0 (inactive)

| molecule | system | assignedLabel |
| --- | --- | --- |
| Cc1ccccc1/C=C/c1cc[n+](C)cc1 | DNA dC->dU-editing enzyme APOBEC-3A (Homo sapiens, UniProt P31941) | label 1 |
| Cc1cc(=O)[nH]c(SCC(=O)NCc2ccco2)n1 | DNA dC->dU-editing enzyme APOBEC-3A (Homo sapiens, UniProt P31941) | label 1 |
| Cc1ccc(C)c(NC(=O)C2CC(O)CN2C(=O)Oc2ccccc2)c1 (centres undefined) | DNA dC->dU-editing enzyme APOBEC-3A (Homo sapiens, UniProt P31941) | label 1 |
| C#CCn1cc(/C=N/NC(=O)COc2cccc3cccnc23)c2ccccc21 | DNA dC->dU-editing enzyme APOBEC-3A (Homo sapiens, UniProt P31941) | label 0 |

====

Quick reference: IC50 of the listed items.
target: UniProt:P03070; type: functional, Betapolyomavirus macacae
Sequence (P03070 whole entry): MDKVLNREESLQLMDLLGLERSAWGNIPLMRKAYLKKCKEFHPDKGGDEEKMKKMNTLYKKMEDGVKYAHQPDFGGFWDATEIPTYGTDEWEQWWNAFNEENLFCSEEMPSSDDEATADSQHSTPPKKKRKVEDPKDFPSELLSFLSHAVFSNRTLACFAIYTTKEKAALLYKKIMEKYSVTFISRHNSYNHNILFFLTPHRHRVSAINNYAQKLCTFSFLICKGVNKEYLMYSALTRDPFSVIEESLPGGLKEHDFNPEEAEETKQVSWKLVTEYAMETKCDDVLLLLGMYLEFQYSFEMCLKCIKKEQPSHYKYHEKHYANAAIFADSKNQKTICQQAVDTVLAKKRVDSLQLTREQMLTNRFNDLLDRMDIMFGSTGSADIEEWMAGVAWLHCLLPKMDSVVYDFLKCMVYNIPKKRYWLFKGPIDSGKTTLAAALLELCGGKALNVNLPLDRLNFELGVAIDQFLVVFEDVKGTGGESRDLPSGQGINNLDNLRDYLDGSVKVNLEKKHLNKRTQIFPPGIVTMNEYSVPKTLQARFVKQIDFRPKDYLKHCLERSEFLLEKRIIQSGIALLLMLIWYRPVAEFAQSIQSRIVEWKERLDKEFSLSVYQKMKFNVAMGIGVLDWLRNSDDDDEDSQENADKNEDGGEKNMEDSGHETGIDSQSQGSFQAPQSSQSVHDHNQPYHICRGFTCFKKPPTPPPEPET
Calls of active or inactive are those of the source.

| compound | IC50 |
| --- | --- |
| CCOC(=O)Cc1cc(=O)n(-c2nc3ccccc3s2)[nH]1 | > 100 µM (active) |
| N=C1/C(=C\c2ccc(O)c(O)c2)C(=O)N=C2SC(CC(=O)N3CCCCC3)=NN12 | 1.92 µM (active) |
| Nc1nnc(S)n1N=C1C(=O)Nc2ccccc21 | 7.65 µM (active) |
| COc1cc(/C=N/N(C)C)cc(Br)c1O | 5.17 µM (active) |
| CCN(CC)c1ccc(NC(=O)CSc2nnc(N)s2)cc1C | 14.8 µM (active) |
| CN1CC(C(=O)O)Cc2c1ccc1ccccc21 (stereo not drawn) | 19.4 µM (active) |
| Cc1ccsc1/C=N/n1c(S)nnc1-c1cccnc1 | 30.3 µM (active) |
| CC(Cc1ccc(O)c(O)c1)C(C)Cc1ccc(O)c(O)c1 (stereo not drawn) [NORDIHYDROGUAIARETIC ACID] | 21.9 µM (active) |
